# STUDY TARGET: Dual specificity protein kinase CLK4 (Homo sapiens) (UniProt Q9HAZ1)
# Sequence (Q9HAZ1 whole entry, looked up): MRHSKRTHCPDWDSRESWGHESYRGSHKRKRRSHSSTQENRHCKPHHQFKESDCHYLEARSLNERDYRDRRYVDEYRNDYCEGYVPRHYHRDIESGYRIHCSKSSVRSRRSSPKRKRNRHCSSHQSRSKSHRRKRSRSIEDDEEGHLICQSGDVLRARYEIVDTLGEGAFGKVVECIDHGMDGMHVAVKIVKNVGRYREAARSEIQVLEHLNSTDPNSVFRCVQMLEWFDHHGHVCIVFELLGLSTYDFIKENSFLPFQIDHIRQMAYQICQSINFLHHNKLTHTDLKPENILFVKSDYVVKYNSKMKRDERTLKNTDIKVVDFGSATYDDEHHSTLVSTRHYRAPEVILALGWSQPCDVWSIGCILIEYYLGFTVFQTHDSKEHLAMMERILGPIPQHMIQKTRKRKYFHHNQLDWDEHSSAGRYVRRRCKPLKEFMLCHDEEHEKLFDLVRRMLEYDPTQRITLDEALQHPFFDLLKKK
# EXPERIMENT NOTES: qHTS Assay for Inhibitors of CDC-like Kinase 4 (ADP-FP Assay) (AID 1795); note: nearly all actives have a fitted effect of over 60% in size
# ASSAY CONTEXT: Transcreener ADP fluorescence polarization; series mostly up to 50 µM
Results filed as inconclusive are left out. Active and inactive are the calls of the source. Calls come from the whole dose curve; as a rule, active = well fitted inhibition curve with a large enough effect; inconclusive = small, poorly fitted or top-dose-only effect; inactive = flat fitted curve, though single readings scatter.
Pick one: active, inactive

- MOLECULE SMILES: "COc1cccc(Cn2c(=O)c(-c3ccc(F)cc3)nc3cncnc32)c1"
  ASSIGNED CATEGORY: "inactive"
- MOLECULE SMILES: "O=c1c(-c2ccccc2)nc2cnc(Oc3cccc(Cl)c3)nc2n1C[C@H]1CCCO1"
  ASSIGNED CATEGORY: "inactive"
- MOLECULE SMILES: "COc1ncc2ncc(=O)n(CCc3ccccc3)c2n1"
  ASSIGNED CATEGORY: "active"
- MOLECULE SMILES: "COc1ccccc1-c1cc(-n2ccnc2)ncn1"
  ASSIGNED CATEGORY: "active"
- MOLECULE SMILES: "COc1ccc(Nc2ncc3nc(-c4cccs4)c(=O)n(Cc4cccc(OC)c4)c3n2)cc1"
  ASSIGNED CATEGORY: "inactive"
- MOLECULE SMILES: "CN(Cc1ccco1)c1nc(-c2ccc3c(c2)OCO3)nc2ccccc12"
  ASSIGNED CATEGORY: "inactive"

input: Assay outcome for `CC(=O)NCCNc1nc(-c2cccc(NS(C)(=O)=O)c2)nc2ccccc12` : what was it?
output: inactive

input: Assay outcome for `CN(C)C(=O)c1ccc(-c2nccc(-n3ccnc3)n2)cc1` : what was it?
output: inactive

input: Assay outcome for `COCCn1c(=O)c(-c2ccccc2)nc2cnc(N3CCOCC3)nc21` : what was it?
output: inactive

input: Assay outcome for `Cn1c(=O)c(-c2ccccc2)nc2cnc(Nc3ccccc3)nc21` : what was it?
output: inactive

input: Assay outcome for `COc1cccc(Cn2c(=O)c(-c3cccs3)nc3cnc(N4CCOCC4)nc32)c1` : what was it?
output: inactive

input: Assay outcome for `Cc1ccccc1-c1cc(N(C)Cc2ccco2)ncn1` : what was it?
output: inactive

input: Assay outcome for `c1cncc(-c2nc(NCc3cccs3)c3ccccc3n2)c1` : what was it?
output: active

input: Assay outcome for `CN(C)Cc1ccccc1-c1nccc(Nc2ccc(F)cc2)n1` : what was it?
output: inactive

* * *

# STUDY TARGET: Cytochrome P450 2C9 (Homo sapiens)
# EXPERIMENT NOTES: qHTS Assay for Inhibitors and Substrates of Cytochrome P450 2C9 (AID 883); note: nearly all actives have a fitted effect of over 60% in size; note: potency is the fitted concentration of half-maximal effect
# ASSAY CONTEXT: recombinant CYP2C9, luciferin-H luminescence, 60 min; series mostly up to 57.1 µM
Inconclusive results are not listed. The source made the active and inactive calls. Calls follow the shape of the dose curve; as a rule, active = well fitted inhibition curve with a large enough effect; inconclusive = small, poorly fitted or top-dose-only effect; inactive = no such curve, though single readings can be large or run the other way.
OUTCOME MEASURE: Potency

- MOLECULE SMILES: "O=C(O)/C=C\\c1ccc(O)c(O)c1"
  Potency: "inactive"
- MOLECULE SMILES: "O=c1cnc2cnc(Oc3cccc(Cl)c3)nc2n1C1CC1"
  Potency: "6.31 µM (active)"
- MOLECULE SMILES: "N#Cc1cccc(NC(=O)N2CC[C@@]3(CCCN(C(=O)c4cc(C(F)(F)F)cc(C(F)(F)F)c4)C3)C2)c1"
  Potency: "inactive"
- MOLECULE SMILES: "O=c1c(-c2ccc(Cl)cc2)nc2cnc(N3CCOCC3)nc2n1Cc1ccc(F)cc1"
  Potency: "inactive"

input: Please give the measured Potency for this compound: `CN1[C@@H](CC(=O)c2ccccc2)CCC[C@@H]1C[C@@H](O)c1ccccc1`
output: inactive

* * *

# STUDY TARGET: Ubiquitin carboxyl-terminal hydrolase 1 (Homo sapiens) (UniProt O94782)
# Sequence (O94782 whole entry, looked up): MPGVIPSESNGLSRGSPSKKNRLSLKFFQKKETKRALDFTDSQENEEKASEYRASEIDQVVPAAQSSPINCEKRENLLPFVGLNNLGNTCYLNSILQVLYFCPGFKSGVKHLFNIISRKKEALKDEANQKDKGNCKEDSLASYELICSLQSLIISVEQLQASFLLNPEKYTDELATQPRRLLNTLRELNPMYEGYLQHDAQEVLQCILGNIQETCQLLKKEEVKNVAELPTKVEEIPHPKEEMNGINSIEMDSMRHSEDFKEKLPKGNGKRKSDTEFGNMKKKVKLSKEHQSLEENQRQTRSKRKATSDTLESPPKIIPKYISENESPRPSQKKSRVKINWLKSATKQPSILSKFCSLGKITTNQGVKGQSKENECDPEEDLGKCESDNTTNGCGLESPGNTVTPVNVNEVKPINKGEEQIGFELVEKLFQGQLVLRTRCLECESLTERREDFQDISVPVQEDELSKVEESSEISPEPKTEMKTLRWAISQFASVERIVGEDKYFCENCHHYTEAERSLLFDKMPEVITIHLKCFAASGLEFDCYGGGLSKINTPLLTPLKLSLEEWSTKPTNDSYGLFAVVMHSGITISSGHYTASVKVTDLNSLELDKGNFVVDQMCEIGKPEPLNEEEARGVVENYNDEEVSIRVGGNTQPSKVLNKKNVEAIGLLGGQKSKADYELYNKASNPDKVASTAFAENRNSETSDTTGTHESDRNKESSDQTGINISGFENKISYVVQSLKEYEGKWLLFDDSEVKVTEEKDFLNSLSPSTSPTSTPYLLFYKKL
# EXPERIMENT NOTES: Inhibitors of USP1/UAF1: Pilot qHTS (AID 504865);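 note: rhodamine fluorescence freed from ubiquitin-rhodamine substrate followed over time; top concentration of the series differs between compounds; % is set by controls: 0 for no effect and ±100 for the full control effect; nearly all actives have a fitted effect of over 35% in size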
# ASSAY CONTEXT: purified USP1/UAF1, Ub-rhodamine cleavage fluorescence; series mostly up to 54.9 µM
Results filed as inconclusive are left out. Calls of active or inactive are those of the source. The call rests on the fitted dose curve; in most records, active means well fitted inhibition curve with a large enough effect; inconclusive means small, poorly fitted or top-dose-only effect; inactive means flat fitted curve, though single readings scatter.
Pick one: True for active, False for inactive

- MOLECULE: "CS(=O)(=O)Nc1cccc(-c2nccc(NCc3cccs3)n2)c1"
  ASSIGNED CATEGORY: "False"

input: Assay outcome for `CN(C)Cc1ccccc1-c1nc(NC2CC2)c2ccccc2n1` : what was it?
output: False

input: Assay outcome for `COc1cccc(Cn2c(=O)c(-c3cn(C)c4ccccc34)nc3cnc(N4CCOCC4)nc32)c1` : what was it?
output: False

input: Assay outcome for `Cc1ccccc1-c1ccc2ncnc(N(C)Cc3ccco3)c2c1` : what was it?
output: False

input: Assay outcome for `COc1ccc(-c2nc3cnc(N(C)C)nc3n(-c3ccccc3)c2=O)cc1` : what was it?
output: False

input: Assay outcome for `CN1CCN(c2ncncc2-c2ccccc2Cl)CC1` : what was it?
output: False

input: Assay outcome for `CC1=C(C(=O)O)N2C(=O)[C@@H](NC(=O)[C@@H](N)c3ccccc3)[C@@H]2SC1` : what was it?
output: False

input: Assay outcome for `CCNc1ncc2nc(-c3cccs3)c(=O)n(C[C@H]3CCCO3)c2n1` : what was it?
output: False

input: Assay outcome for `CN(C)c1ncc2nc(-c3ccc(Cl)cc3)c(=O)n(C[C@H]3CCCO3)c2n1` : what was it?
output: False

input: Assay outcome for `O=c1c(-c2cccs2)nc2cncnc2n1Cc1ccc(F)cc1` : what was it?
output: False

input: Assay outcome for `Cc1cnc(CNc2cc(-c3ccccc3C(F)(F)F)ncn2)cn1` : what was it?
output: False

input: Assay outcome for `CN(C)c1ncc2nc(-c3ccc(Cl)cc3)c(=O)n(Cc3cccs3)c2n1` : what was it?
output: False

input: Assay outcome for `NC(=O)c1ccccc1-c1nc(-n2ccnc2)c2ccccc2n1` : what was it?
output: False

input: Assay outcome for `O=c1[nH]c(=O)n([C@@H]2C[C@H](O)[C@H](CO)O2)cc1I` : what was it?
output: False

input: Assay outcome for `Cc1cnc(CNc2nc(-c3ccc(C(=O)N(C)C)cc3)nc3ccccc23)cn1` : what was it?
output: False

input: Assay outcome for `c1cncc(-c2cncnc2NCc2cccs2)c1` : what was it?
output: False

input: Assay outcome for `CNc1nc(-c2cccc(C#N)c2)nc2ccccc12` : what was it?
output: False

input: Assay outcome for `COc1ccc(CNc2ncncc2-c2ccoc2)c(OC)c1` : what was it?
output: False

* * *

# EXPERIMENT NOTES: qHTS Assay for Lipid Storage Modulators (AID 1519)
# ASSAY CONTEXT: Drosophila S3 cells, BODIPY lipid droplet/cell ratio, laser cytometry; measured here: lipid channel max response; cells loaded with oleic acid
Inconclusive results are not listed.
OUTCOME MEASURE: max response (%)
Kindly answer with a numeric value in %, unit omitted.

- MOLECULE SMILES: "c1ccc(Nc2ncnc3ccc(-c4cccnc4)cc23)cc1"
  max response [%]: -13.8
- MOLECULE SMILES: "Cc1cccc(CNc2ccnc(-c3ccc(C(=O)N(C)C)cc3)n2)c1"
  max response [%]: 0.35
- MOLECULE SMILES: "CN1CCN(c2nc(-c3cccc(NS(C)(=O)=O)c3)nc3ccccc23)CC1"
  max response [%]: 8.93
- MOLECULE SMILES: "CC(C)CN1CCCC2(CCN(S(=O)(=O)c3ccccc3)CC2)C1"
  max response [%]: 15.5

input: Please give the measured max response for this compound: `COC(=O)N1CCC2(CCN(C(=O)Nc3cccc(C#N)c3)CC2)CC1`
output: 14

input: Please give the measured max response for this compound: `CN(C)Cc1ccccc1-c1cncnc1NCc1cccnc1`
output: 4.73

input: Please give the measured max response for this compound: `N#Cc1cccc(NC(=O)N2CC3(CCN(C(=O)c4cccc(F)c4)CC3)C2)c1`
output: 25.1

input: Please give the measured max response for this compound: `CC(C)CN1CC2(CCN(S(=O)(=O)c3ccccc3)CC2)C1`
output: -14.3

input: Please give the measured max response for this compound: `CS(=O)(=O)N1CCC2(CC1)CN(c1ccccc1)C2`
output: 17.6

input: Please give the measured max response for this compound: `CS(=O)(=O)N1CCC2(CCN(c3ccccn3)CC2)CC1`
output: 13.9

input: Please give the measured max response for this compound: `COCC(=O)N1CCC2(CCCN(Cc3ccccc3OC)C2)CC1`
output: 0.269

* * *

# EXPERIMENT NOTES: Stat Signaling Pathway (AID 446);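 note: ME-180 cervical cancer cells given 40 pM IL-6 alongside compound; SIE-controlled beta-lactamase reporter measured as 460/530 nm FRET emission ratio; % is set by controls: 0 for no effect and ±100 for the full control effect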
# ASSAY CONTEXT: ME-180 (cervical carcinoma) SIE beta-lactamase reporter, IL-6 stimulated, 5 h; at 7.69 µM (top of the series) unless noted
Results filed as inconclusive are left out. The source made the active and inactive calls. Calls come from the whole dose curve; as a rule, active = well fitted curve in either direction with a large enough effect (not every such curve was filed as active); inconclusive = small, poorly fitted or top-dose-only effect, or another doubt; inactive = flat fitted curve, though single readings scatter.
Each item that follows carries a reported activity, negative = inhibition.

Guide cases for activity, negative = inhibition, answers given:
- MOLECULE SMILES: "COCC(=O)N1CCC[C@@]2(CCN(C(c3ccccc3)c3ccccc3)C2)C1"
  activity, negative = inhibition: "-0.903% (inactive)"
- MOLECULE SMILES: "COc1ncc2nc(CCc3ccccc3)c(=O)n(Cc3cccs3)c2n1"
  activity, negative = inhibition: "-3.9% (inactive)"

Turning to the following compound.
input: Please give the measured activity, negative = inhibition for this compound: `COc1ccc(CNc2ncncc2-c2cccc(NS(C)(=O)=O)c2)c(OC)c1`
output: 17.9% (inactive)

Cited source: PubChem BioAssay (NCATS)
